Data provenance: patent US12331044B2

# Tested on: human HDAC8 (Homo sapiens (Human))
# Sequence (Q9BY41 whole entry): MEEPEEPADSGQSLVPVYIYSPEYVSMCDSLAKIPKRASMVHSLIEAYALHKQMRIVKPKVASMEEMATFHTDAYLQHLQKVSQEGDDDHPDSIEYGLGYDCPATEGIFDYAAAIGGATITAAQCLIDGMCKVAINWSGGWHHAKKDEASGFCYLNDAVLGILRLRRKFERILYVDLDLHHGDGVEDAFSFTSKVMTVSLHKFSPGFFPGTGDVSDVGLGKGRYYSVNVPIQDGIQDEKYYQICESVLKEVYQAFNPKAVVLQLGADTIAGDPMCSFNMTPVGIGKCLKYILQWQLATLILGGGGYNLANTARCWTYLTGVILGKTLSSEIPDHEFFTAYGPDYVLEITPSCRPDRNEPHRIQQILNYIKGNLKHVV
# Assay protocol: HDAC8 inhibition assay (modified FLUOR DE LYS, 384-well)
# Format: biochemical
# Measurement parameters: […] enzyme, 200 μM substrate BML-KI178, 3 h pre-incubation; read-out: HDAC8 IC50
pIC50: −log10 of the molar value.

Molecule: COc1nc2ccccc2cc1-c1cnc([C@H](CCCCCC(=O)c2ncco2)NC(=O)C2COCCO2)[nH]1 (some centres unmarked)
pIC50: 7.11
//
Molecule: COc1nc2ccccc2cc1-c1cnc([C@H](CCCCCC(=O)c2ncco2)NC(=O)C2(c3cnccn3)CC2)[nH]1
pIC50: 7.28
//
Molecule: CN[C@@H](CCCCCC(=O)c1ncco1)c1ncc(-c2ccc3nc(C)ccc3c2)[nH]1
pIC50: 5.47
//
Molecule: CCN(CC)CC(=O)N[C@@H](CCCCCC(=O)c1ncco1)c1ncc(-c2cc3ccccc3nc2OC)[nH]1
pIC50: 7.33
//
Molecule: COc1nc2ccccc2cc1-c1cnc([C@H](CCCCCC(=O)c2ncco2)NC(=O)CN2CCOCC2)[nH]1
pIC50: 7.06
//
Molecule: COc1nc2ccccc2cc1-c1cnc([C@H](CCCCCC(=O)c2ncco2)NC(=O)CN2CCCC2)[nH]1
pIC50: 7.36
//
Molecule: COc1cc2nc(C)ccc2cc1-c1cnc([C@H](CCCCCC(=O)c2ncco2)NC(=O)Cn2cccc2)[nH]1
pIC50: 6.52
//
Molecule: COc1cc2nc(C)ccc2cc1-c1cnc([C@H](CCCCCC(=O)c2ncco2)NC(=O)C2CCCO2)[nH]1 (some centres unmarked)
pIC50: 6.74
//
Molecule: CN(C)CC(=O)N[C@@H](CCCCCC(=O)c1ncco1)c1ncc(-c2ccc3c(ccc(=O)n3C)c2)[nH]1
pIC50: 7.04
//
Molecule: N[C@H](CCCCCC(=O)c1ccon1)c1cc(-c2ccc(F)cc2)on1
pIC50: 6.59
//
Molecule: CCN1CCC2(CC1)C[C@@H]2C(=O)N[C@@H](CCCCCC(=O)c1ncco1)c1ccn(-c2ccc3nn(C)cc3c2)n1
pIC50: 6.77
//
Molecule: COc1cc2nc(C)ccc2cc1-c1cnc([C@H](CCCCCC(=O)c2ncco2)NC(=O)c2cc3ncccn3n2)[nH]1
pIC50: 7.36
//
Molecule: CCN1CCC2(CC1)C[C@@H]2C(=O)N[C@@H](CCCCCC(=O)c1ncco1)c1ncc(-c2cc(OC)ncc2F)[nH]1
pIC50: 7.19
//
Molecule: COc1nc(C2CC2)ccc1-c1c[nH]c([C@H](CCCCCC(=O)c2ncco2)NC(=O)[C@H]2CC23CCN(C)CC3)n1
pIC50: 7.29

* * *

# Tested on: human HDAC8 (Homo sapiens (Human))
# Assay protocol: HDAC8 inhibition assay (modified FLUOR DE LYS, 384-well)
# Format: biochemical
# Measurement parameters: […] nM enzyme, 200 μM substrate BML-KI178, 3 h pre-incubation; read-out: HDAC8 IC50
Would you mind classing the entries by IC50? Ranges: 0: < 200 nM; 1: ≥ 200 nM and < 3000 nM; 2: ≥ 3000 nM

Compound: COc1cc2nc(C)ccc2cc1-c1c[nH]c([C@@H](N)CCCCCC(=O)c2ccon2)n1
Answer label: 0
//
Compound: CN(C)CC(=O)N[C@@H](CCCCCC(=O)c1ncco1)c1oc(-c2ccc(F)cc2)nc1C#N
Answer label: 2
//
Compound: CN1CC(C(=O)N[C@@H](CCCCCC(=O)c2ccon2)c2[nH]c(-c3ccccc3F)nc2Cl)C1
Answer label: 0
//
Compound: CN1CC(C(=O)N[C@@H](CCCCCC(=O)c2ncco2)c2[nH]c(-c3ccc(F)cc3)nc2Cl)C1
Answer label: 1
//
Compound: CN(C)CC(=O)N[C@@H](CCCCCC(=O)c1ncco1)c1[nH]c(-c2ccc(F)cc2)nc1C#N
Answer label: 1
//
Compound: CCN1CCC2(CC1)C[C@@H]2C(=O)N[C@@H](CCCCCC(=O)c1ccon1)c1cc(-c2cc3ccc(C)nc3cc2OC)on1
Answer label: 0
//
Compound: N#Cc1nc(-c2ccc(F)cc2)[nH]c1[C@@H](N)CCCCCC(=O)c1ncco1
Answer label: 2
//
Compound: CN(C)CC(=O)N[C@@H](CCCCCC(=O)c1ncco1)c1ncc(-c2ccc3nccnc3c2)[nH]1
Answer label: 0
//
Compound: CCn1ccc2cc(-c3c[nH]c([C@@H](N)CCCCCC(=O)c4ncco4)n3)ccc2c1=O
Answer label: 1
//
Compound: COc1cc2nc(C)ccc2cc1-c1cnc([C@H](CCCCCC(=O)c2ccon2)NC(=O)C2CN(C)C2)o1
Answer label: 0
//
Compound: COc1cc2nc(C)ccc2cc1-c1cnc([C@H](CCCCCC(=O)c2ncco2)Nc2ncccn2)[nH]1
Answer label: 1
//
Compound: COc1cc2ncccc2cc1-c1c[nH]c([C@@H](N)CCCCCC(=O)c2ncco2)n1
Answer label: 1
//
Compound: COc1nc(C2CC2)ccc1-c1c[nH]c([C@@H](N)CCCCCC(=O)c2ncco2)n1
Answer label: 2
//
Compound: COc1nc2ccccc2cc1-c1cnc(CCCCCCC(=O)c2ncco2)[nH]1
Answer label: 2
//
Compound: Cc1ccc2cc(-c3c[nH]c([C@@H](N)CCCCCC(=O)c4ncco4)n3)ccc2n1
Answer label: 1
//
Compound: Cc1ccc2cc(-c3cnc([C@H](CCCCCC(=O)c4ncco4)NC(=O)[C@H]4CC45CCN(C)CC5)o3)ccc2n1
Answer label: 2
//
Compound: COc1cc(-c2cnc([C@@H](N)CCCCCC(=O)c3ncco3)[nH]2)c(F)cn1
Answer label: 1
//
Compound: N#Cc1nc(-c2ccc(F)cc2)oc1[C@@H](N)CCCCCC(=O)c1ncco1
Answer label: 2
//
Compound: O=C1CC[C@@](CCCCCC(=O)c2ccon2)(c2nc(-c3ccc(-c4ncco4)cc3F)c[nH]2)N1
Answer label: 1
//
Compound: Cc1ccc2cc(-c3cnc([C@H](CCCCCC(=O)c4ncco4)N4CCOCC4)[nH]3)ccc2n1
Answer label: 2
//
Compound: Cc1ccc2cc(-c3cnc([C@H](CCCCCC(=O)c4ncco4)NC(=O)C4=NOC5(CCN(C)CC5)C4)o3)ccc2n1
Answer label: 1
//
Compound: COc1ncccc1-c1c[nH]c([C@@H](N)CCCCCC(=O)c2ccon2)n1
Answer label: 0
//
Compound: Cc1ccc2cc(-c3cnc(C(N)CCCCCC(=O)c4ncco4)o3)ccc2n1 (stereo not shown)
Answer label: 2
//
Compound: Cc1ccc2cc(-c3c[nH]c([C@H](CCCCCC(=O)c4ncco4)NC4CCOCC4)n3)ccc2n1
Answer label: 2
//
Compound: Cc1ccc2cc(-c3c[nH]c([C@H](CCCCCC(=O)c4ncco4)NCc4ccccc4)n3)ccc2n1
Answer label: 2
//
Compound: COc1ncccc1-c1c[nH]c([C@]2(CCCCCC(=O)c3ccon3)CCCC(=O)N2)n1
Answer label: 1
//
Compound: CC(=O)N[C@@H](CCCCCC(=O)c1ncco1)c1ncc(-c2ccc3nc(C)ccc3c2)[nH]1
Answer label: 0
//
Compound: Cc1ccc2cc(-c3cn(C)c([C@@H](N)CCCCCC(=O)c4ncco4)n3)ccc2n1
Answer label: 2
//
Compound: COc1cc2nc(C)ccc2cc1-c1cnc([C@H](CCCCCC(=O)c2ncco2)NC2CC(OC)C2)[nH]1 (stereo partly shown)
Answer label: 2

* * *

# Tested on: human HDAC2 (Homo sapiens (Human), UniProt Q92769)
# Sequence (Q92769 whole entry): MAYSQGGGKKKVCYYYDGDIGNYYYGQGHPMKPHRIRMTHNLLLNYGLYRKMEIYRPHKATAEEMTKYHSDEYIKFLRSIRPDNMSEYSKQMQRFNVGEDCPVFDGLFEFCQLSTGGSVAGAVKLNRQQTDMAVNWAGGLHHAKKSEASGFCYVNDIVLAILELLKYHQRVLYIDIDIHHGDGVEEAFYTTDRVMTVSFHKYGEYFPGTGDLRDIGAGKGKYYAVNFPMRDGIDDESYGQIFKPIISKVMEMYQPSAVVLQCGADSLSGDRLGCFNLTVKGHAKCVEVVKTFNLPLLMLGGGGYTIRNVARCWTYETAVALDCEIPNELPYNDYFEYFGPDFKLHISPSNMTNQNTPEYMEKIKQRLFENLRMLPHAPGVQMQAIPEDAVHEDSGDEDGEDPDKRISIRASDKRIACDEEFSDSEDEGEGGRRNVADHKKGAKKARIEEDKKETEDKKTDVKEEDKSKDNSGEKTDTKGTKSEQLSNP
# Assay protocol: HDAC2 inhibition assay (modified FLUOR DE LYS, 384-well)
# Assay type: biochemical
# Measurement parameters: […] nM enzyme, 40 μM substrate BML-KI104, 3 h pre-incubation; read-out: HDAC2 IC50
Below, each of the molecules is paired with its reported log10 of IC50 value.
Experimental endpoint: log10 of IC50 (log10 of the value in nM)

Molecule: O=C(CCCCC[C@H](NC(=O)c1cncs1)c1[nH]c(-c2ccc(F)cc2)nc1Cl)c1ncco1 [Example 88]
log10 of IC50: 0.15
//
Molecule: O=C1CC[C@@](CCCCCC(=O)c2ccon2)(c2nc(-c3ccc(C4CC4)cc3F)c[nH]2)N1 [Example 68]
log10 of IC50: 0.70
//
Molecule: CCN[C@@H](CCCCCC(=O)c1ncco1)c1ncc(-c2ccc3nc(C)ccc3c2)[nH]1 [Example 74]
log10 of IC50: 0.70
//
Molecule: COc1cc2nc(C)ccc2cc1-c1cnc([C@@H](N)CCCCCC(=O)c2ncco2)o1 [Example 27]
log10 of IC50: 0.98
//
Molecule: Cc1ccc2cc(-c3c[nH]c([C@H](CCCCCC(=O)c4ncco4)NCc4ccccc4)n3)ccc2n1 [Example 81]
log10 of IC50: 1.20
//
Molecule: COc1ncccc1-c1cnc(C(CCCCCC(=O)c2ncco2)NC(=O)[C@H]2CC23CCN(C)CC3)o1 (some centres unmarked) [Example 114]
log10 of IC50: 2.08
//
Molecule: CN1CC(C(=O)N[C@@H](CCCCCC(=O)c2ncco2)c2[nH]c(-c3ccc(F)cc3)nc2Cl)C1 [Example 101]
log10 of IC50: 0.18
//
Molecule: COc1ncccc1-c1c[nH]c([C@@H](N)CCCCCC(=O)c2ccon2)n1 [Example 33]
log10 of IC50: 0.63
